Cited source for all entries: patent US7732451B2

biological target: hMC4-R (Homo sapiens, UniProt P32245); construct: expressed in transfected cells; assay: competitive inhibition binding assay, 125I-NDP-α-MSH, membranes; conditions: read-out: Ki (nM) MC4-R
Sequence (P32245 whole entry): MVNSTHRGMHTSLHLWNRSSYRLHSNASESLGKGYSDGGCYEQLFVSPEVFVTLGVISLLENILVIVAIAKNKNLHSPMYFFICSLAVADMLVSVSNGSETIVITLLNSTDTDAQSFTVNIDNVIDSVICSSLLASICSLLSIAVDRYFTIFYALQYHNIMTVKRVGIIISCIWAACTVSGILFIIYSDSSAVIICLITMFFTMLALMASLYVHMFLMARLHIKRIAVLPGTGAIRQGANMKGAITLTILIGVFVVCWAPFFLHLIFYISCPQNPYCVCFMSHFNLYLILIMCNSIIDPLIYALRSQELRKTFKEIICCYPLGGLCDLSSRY
parameter: Ki (nM)
Write the number in nM without appending the unit.

# annotated cases, reported Ki shown
C[C@@H]1CN(C(=O)[C@H](N)Cc2ccc(Cl)cc2Cl)[C@@H](CCCNC(=N)N)CN1CCc1ccc2ccccc2c1 = 2
C[C@H]1CN(CCc2ccc3ccccc3c2)C[C@H](CCCNC(=N)N)N1C(=O)[C@H](N)Cc1ccc(Cl)cc1Cl [Example 17 (S)-CH3] = 21
Cc1cc(Cl)ccc1C[C@@H](N)C(=O)N1C[C@@H](C)N(CCc2ccc3ccccc3c2)C[C@@H]1CCCNC(=N)N = 1
Cc1ccc(C[C@@H](N)C(=O)N2C[C@@H](C)N(CCc3ccc4ccccc4c3)C[C@@H]2CCCNC(=N)N)c(C)c1 = 11

// moving on: another record for Ki
Name the recorded Ki for `NCCCC[C@H]1C(=O)N(CCc2ccc3ccccc3c2)CCN1C(=O)[C@@H](Cc1ccc(Cl)cc1Cl)NC(=O)/C=C/c1ccccc1` .
13

---

Catalogue of inhibition at 1 µM values
target: hMC4-R (Homo sapiens); construct: expressed in transfected cells; test: competitive inhibition binding assay, 125I-NDP-α-MSH, membranes; details: 1 μM compound; average of triplicates; read-out: Inhibition at 1 μM MC4-R
Write the number in % without appending the unit.

Cc1cc(Cl)ccc1C[C@@H](N)C(=O)N1C[C@@H](C)N(CCc2ccc3ccccc3c2)C[C@@H]1CCCNC(=N)N [Example 14] = 100

Name the recorded inhibition at 1 µM for C[C@@H]1CN(C(=O)[C@H](N)Cc2ccc(Cl)cc2)[C@@H](CCCNC(=N)N)CN1CCc1ccc2ccccc2c1 [Example 15] .
97

Name the recorded inhibition at 1 µM for C[C@H]1CN(CCc2ccc3ccccc3c2)C[C@H](CCCNC(=N)N)N1C(=O)[C@H](N)Cc1ccc(Cl)cc1Cl [Example 17 (S)-CH3] .
97

Name the recorded inhibition at 1 µM for Cc1ccc(C[C@@H](N)C(=O)N2C[C@@H](C)N(CCc3ccc4ccccc4c3)C[C@@H]2CCCNC(=N)N)c(C)c1 [Example 16] .
98

---

molecular target: hMC3-R (Homo sapiens); construct: expressed in transfected cells; assay: competitive inhibition binding assay, 125I-NDP-α-MSH, membranes; conditions: read-out: Ki (nM) MC3-R
Sequence (P41968 whole entry): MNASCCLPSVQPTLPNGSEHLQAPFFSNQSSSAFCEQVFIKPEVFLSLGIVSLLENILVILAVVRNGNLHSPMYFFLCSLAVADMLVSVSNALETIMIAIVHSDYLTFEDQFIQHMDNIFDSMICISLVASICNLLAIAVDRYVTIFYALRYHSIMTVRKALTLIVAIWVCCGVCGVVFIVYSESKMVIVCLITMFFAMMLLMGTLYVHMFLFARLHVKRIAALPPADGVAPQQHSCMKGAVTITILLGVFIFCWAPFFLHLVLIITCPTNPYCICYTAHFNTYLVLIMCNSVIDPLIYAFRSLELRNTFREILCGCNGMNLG
Catalogue of Ki values

Cc1ccc(C[C@@H](N)C(=O)N2C[C@@H](C)N(CCc3ccc4ccccc4c3)C[C@@H]2CCCNC(=N)N)c(C)c1 = 157 nM
Cc1ccc(C[C@@H](N)C(=O)N2C[C@@H](C)N(CCc3ccc4ccccc4c3)C[C@@H]2CCCNC(=N)N)c(Cl)c1 = 227 nM

// moving on: another record for Ki
Name the recorded Ki for `NCCCC[C@H]1C(=O)N(CCc2ccc3ccccc3c2)CCN1C(=O)[C@@H](Cc1ccc(Cl)cc1Cl)NC(=O)c1ccc(Oc2ccccc2)cc1` .
150 nM

---

molecular target: hMC5-R (Homo sapiens); construct: expressed in transfected cells; assay: competitive inhibition binding assay, 125I-NDP-α-MSH, membranes; conditions: read-out: Ki (nM) MC5-R
Sequence (P33032 whole entry): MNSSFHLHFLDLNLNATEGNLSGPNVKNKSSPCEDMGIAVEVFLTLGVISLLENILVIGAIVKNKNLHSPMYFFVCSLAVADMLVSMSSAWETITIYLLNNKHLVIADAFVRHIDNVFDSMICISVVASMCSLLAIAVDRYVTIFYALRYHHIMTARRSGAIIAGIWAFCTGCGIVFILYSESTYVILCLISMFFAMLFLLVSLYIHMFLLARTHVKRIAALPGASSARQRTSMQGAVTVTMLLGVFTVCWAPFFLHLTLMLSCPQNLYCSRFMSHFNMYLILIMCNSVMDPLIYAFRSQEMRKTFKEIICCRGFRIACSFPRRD
Catalogue of Ki values
Write the number in nM without appending the unit.

C[C@@H]1CN(C(=O)[C@H](N)Cc2ccc(Cl)cc2)[C@@H](CCCNC(=N)N)CN1CCc1ccc2ccccc2c1 = 551
Cc1cc(Cl)ccc1C[C@@H](N)C(=O)N1C[C@@H](C)N(CCc2ccc3ccccc3c2)C[C@@H]1CCCNC(=N)N = 219
NCCCC[C@H]1C(=O)N(CCc2ccc3ccccc3c2)CCN1C(=O)[C@@H](Cc1ccc(Cl)cc1Cl)NC(=O)c1ccc(Oc2ccccc2)cc1 = 282
C[C@@H]1CN(C(=O)[C@H](N)Cc2ccc(Cl)cc2Cl)[C@@H](CCCNC(=N)N)CN1CCc1ccc2ccccc2c1 = 362

// moving on: another record for Ki
Name the recorded Ki for `Cc1ccc(C[C@@H](N)C(=O)N2C[C@@H](C)N(CCc3ccc4ccccc4c3)C[C@@H]2CCCNC(=N)N)c(C)c1` .
717

---

biological target: MC4-R (HEK-293 cells expressing MC4-R) (Homo sapiens); construct: expressed in transfected cells; host or cells: HEK-293; experiment: cAMP assay for agonist/antagonist status; format: cell-based; settings: antagonism = inhibition of α-MSH-induced cAMP
Sequence (P32245 whole entry): as the sequence (P32245 whole entry) above
parameter: agonist/antagonist status as to MC4-R

# annotated cases, reported agonist/antagonist status as to MC4-R shown
NCCCC[C@H]1C(=O)N(CCc2ccc3ccccc3c2)CCN1C(=O)[C@@H](Cc1ccc(Cl)cc1Cl)NC(=O)c1ccc(Oc2ccccc2)cc1 [Example 10] = antagonist
C[C@@H]1CN(C(=O)[C@H](N)Cc2ccc(Cl)cc2)[C@@H](CCCNC(=N)N)CN1CCc1ccc2ccccc2c1 [Example 15] = agonist
Cc1ccc(C[C@@H](N)C(=O)N2C[C@@H](C)N(CCc3ccc4ccccc4c3)C[C@@H]2CCCNC(=N)N)c(C)c1 [Example 16] = agonist
C[C@H]1CN(CCc2ccc3ccccc3c2)C[C@H](CCCNC(=N)N)N1C(=O)[C@H](N)Cc1ccc(Cl)cc1Cl [Example 17 (S)-CH3] = agonist
Cc1ccc(C[C@@H](N)C(=O)N2C[C@@H](C)N(CCc3ccc4ccccc4c3)C[C@@H]2CCCNC(=N)N)c(Cl)c1 [Example 13] = antagonist

Name the recorded agonist/antagonist status as to MC4-R for C[C@@H]1CN(C(=O)[C@H](N)Cc2ccc(Cl)cc2Cl)[C@@H](CCCNC(=N)N)CN1CCc1ccc2ccccc2c1 [Example 11] .
antagonist

Name the recorded agonist/antagonist status as to MC4-R for NCCCC[C@H]1C(=O)N(CCc2ccc3ccccc3c2)CCN1C(=O)[C@@H](Cc1ccc(Cl)cc1Cl)NC(=O)/C=C/c1ccccc1 [Example 8] .
antagonist

---

target: hMC4-R (Homo sapiens, UniProt P32245); construct: expressed in transfected cells; test: competitive inhibition binding assay, 125I-NDP-α-MSH, membranes; details: read-out: Ki (nM) MC4-R
Catalogue of Ki values
Write the number in nM without appending the unit.

# annotated cases, reported Ki shown
Cc1ccc(C[C@@H](N)C(=O)N2C[C@@H](C)N(CCc3ccc4ccccc4c3)C[C@@H]2CCCNC(=N)N)c(Cl)c1 = 5
NCCCC[C@H]1C(=O)N(CCc2ccc3ccccc3c2)CCN1C(=O)[C@@H](Cc1ccc(Cl)cc1Cl)NC(=O)c1ccc(Oc2ccccc2)cc1 = 1

Name the recorded Ki for `C[C@@H]1CN(C(=O)[C@H](N)Cc2ccc(Cl)cc2)[C@@H](CCCNC(=N)N)CN1CCc1ccc2ccccc2c1` .
11

---

Catalogue of inhibition at 1 µM values
biological target: hMC4-R (Homo sapiens, UniProt P32245); construct: expressed in transfected cells; test: competitive inhibition binding assay, 125I-NDP-α-MSH, membranes; details: 1 μM compound; average of triplicates; read-out: Inhibition at 1 μM MC4-R
Write the number in % without appending the unit.

# annotated cases, reported inhibition at 1 µM shown
NCCCC[C@H]1C(=O)N(CCc2ccc3ccccc3c2)CCN1C(=O)[C@@H](Cc1ccc(Cl)cc1Cl)NC(=O)[C@@H]1CC[C@H](c2ccccc2)N1 [Example 7] = 92
N=C(N)NCCC[C@H]1CN(CCOc2ccc3ccccc3c2)CCN1C(=O)[C@@H](N)Cc1ccc(Cl)cc1Cl [Example 18] = 91
Cc1ccc(C[C@@H](N)C(=O)N2C[C@@H](C)N(CCc3ccc4ccccc4c3)C[C@@H]2CCCNC(=N)N)c(Cl)c1 [Example 13] = 100

// moving on: another record for inhibition at 1 µM
Name the recorded inhibition at 1 µM for C[C@@H]1CN(C(=O)[C@H](N)Cc2ccc(Cl)cc2Cl)[C@@H](CCCNC(=N)N)CN1CCc1ccc2ccccc2c1 [Example 11] .
100

---

Catalogue of inhibition at 1 µM values
target: hMC4-R (Homo sapiens, UniProt P32245); construct: expressed in transfected cells; experiment: competitive inhibition binding assay, 125I-NDP-α-MSH, membranes; conditions: 1 μM compound; average of triplicates; read-out: Inhibition at 1 μM MC4-R
Write the number in % without appending the unit.

# annotated cases, reported inhibition at 1 µM shown
NCCCC[C@H]1C(=O)N(CCc2ccc3ccccc3c2)CCN1C(=O)[C@@H](Cc1ccc(Cl)cc1Cl)NC(=O)c1ccc(Oc2ccccc2)cc1 = 99
C[C@@H]1CN(CCc2ccc3ccccc3c2)C[C@H](CCCNC(=N)N)N1C(=O)[C@H](N)Cc1ccc(Cl)cc1Cl [Example 17 (R)-CH3] = 95

// moving on: another record for inhibition at 1 µM
Name the recorded inhibition at 1 µM for `NCCCC[C@H]1C(=O)N(CCc2ccc3ccccc3c2)CCN1C(=O)[C@@H](Cc1ccc(Cl)cc1Cl)NC(=O)/C=C/c1ccccc1` .
96
